Assay system: T1, hexahistidine-PAP-myc (UniProt Q61183-1 1-739)
T1 construct: poly(A) polymerase (PAP), NM_011112, in a pQE expression vector; also called (His)6-PAP-myc; poly(A) polymerase; source: bacterially expressed (E. coli STBL2 or Rosetta(DE3)pLacI), purified; not shown: His6, N-terminal, kept; myc, C-terminal, kept
T1 sequence (Q61183 whole entry): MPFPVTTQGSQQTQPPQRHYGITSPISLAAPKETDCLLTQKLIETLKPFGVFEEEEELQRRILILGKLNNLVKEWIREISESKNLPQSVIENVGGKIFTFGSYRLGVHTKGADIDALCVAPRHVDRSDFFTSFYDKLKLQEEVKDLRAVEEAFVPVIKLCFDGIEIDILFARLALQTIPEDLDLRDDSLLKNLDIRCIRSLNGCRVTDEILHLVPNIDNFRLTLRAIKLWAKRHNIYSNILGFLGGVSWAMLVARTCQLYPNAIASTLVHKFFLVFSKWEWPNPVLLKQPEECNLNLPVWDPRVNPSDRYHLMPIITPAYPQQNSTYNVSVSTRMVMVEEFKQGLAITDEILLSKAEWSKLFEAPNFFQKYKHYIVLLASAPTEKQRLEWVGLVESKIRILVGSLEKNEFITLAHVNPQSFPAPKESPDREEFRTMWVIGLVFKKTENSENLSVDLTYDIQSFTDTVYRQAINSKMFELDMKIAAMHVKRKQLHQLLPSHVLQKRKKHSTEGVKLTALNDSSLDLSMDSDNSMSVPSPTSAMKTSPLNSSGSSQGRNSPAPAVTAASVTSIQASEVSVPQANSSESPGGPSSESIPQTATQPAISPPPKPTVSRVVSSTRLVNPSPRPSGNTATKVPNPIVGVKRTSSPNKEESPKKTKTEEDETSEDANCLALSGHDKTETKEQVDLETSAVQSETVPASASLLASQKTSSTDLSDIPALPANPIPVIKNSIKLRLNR
Method summary: co-IP; 0.5 µg bacterially expressed GST-TTP construct and 0.5 µg (His)6-PAP-myc with anti-myc agarose in 10 mM Tris pH 7.0, 0.15 M NaCl, 1 mM MgCl2, 0.7 mM ZnCl2, 0.1% NP-40, 4°C overnight; blots with anti-myc and anti-GST
Condition details: both partners purified
Parameter measured: binding result

>>> result("GST-TTP@95-158(F118N) (domain or fragment, mouse, UniProt P22893 95-158, looked up, source: E. coli STBL2 or Rosetta(DE3)pLacI, purified (glutathione-agarose); not shown: GST, N-terminal, kept) RYKTELCRTYSESGRCRYGAKCQNAHGLGELRQANRHPKYKTELCHKFYLQGRCPYGSRCHFIH")
"binds"
